Cited source for all entries: ChEMBL document CHEMBL4196200

experiment: Lipophilicity, log D of the compound; type: physicochemical; details: octanol/water
property.name: logD
The response must contain the number and no unit.

q: Look up and report measured logD for this entry: Cc1cc(C(=O)N2Cc3cnn(C)c3Nc3ccccc32)ccc1CNC(=O)N1CCC[C@H]1C(=S)N(C)C
a: 2

---

# Emax per entry
target: Oxytocin receptor (Homo sapiens) (UniProt P30559); test: Agonist activity at human OTR expressed in HEK cells assessed as increase in intracellular calcium flux incubated for 45 mins by Indo1-AM dye based fluorescence assay relative to OT; assay type: functional, cell-based
Value expressed in %; do not type the unit.

q: Look up and report measured Emax for this entry: Cc1cc(C(=O)N2Cc3cnn(C)c3Nc3ccccc32)ccc1CNC(=O)N1CCC[C@H]1C(=S)N1CCCN(C)CC1
a: 84

q: Look up and report measured Emax for this entry: Cc1cc(C(=O)N2Cc3cnn(C)c3Nc3ccccc32)ccc1CNC(=O)N1CCC[C@H]1C(=O)N(C)C
a: 34

---
q: Look up and report measured Emax for this entry: Cc1cc(C(=O)N2Cc3cnn(C)c3Nc3ccccc32)ccc1CNC(=O)N1CCN(Cc2cc(O)cc(O)c2)CC1
a: 40

q: Look up and report measured Emax for this entry: Cc1cc(C(=O)N2Cc3cnn(C)c3Nc3ccccc32)ccc1CNC(=O)N1CCC[C@H]1C(=S)N(C)C
a: 52

---

species on record: Homo sapiens; experiment: Selectivity for human V1a receptor over human V2 receptor
property.name: Selectivity ratio

Check out these entries, answers already filled in.
q: Look up and report measured Selectivity ratio for this entry: Cc1ccn(-c2ccc(C(=O)N3Cc4cnn(C)c4Nc4ccccc43)c(Cl)c2)n1
a: 0.93

q: Look up and report measured Selectivity ratio for this entry: Cc1ccn(-c2ccc(C(=O)N3CCCC(O)c4ccccc43)cc2)n1 (configuration not stated)
a: 0.14

q: Look up and report measured Selectivity ratio for this entry: Cc1ccn(-c2ccc(C(=O)N3CCCC(N(C)C)c4ccccc43)c(Cl)c2)n1 (configuration not stated)
a: > 30

---
q: Look up and report measured Selectivity ratio for this entry: Cc1ccn(-c2ccc(C(=O)N3Cc4cccn4Cc4ccccc43)c(Cl)c2)n1
a: 6.9

q: Look up and report measured Selectivity ratio for this entry: Cc1ccn(-c2ccc(C(=O)N3CCCC(N(C)C)c4ccccc43)cc2)n1 (configuration not stated)
a: < 0.74

q: Look up and report measured Selectivity ratio for this entry: Cc1ccn(-c2ccc(C(=O)N3CCCC(O)c4ccccc43)c(Cl)c2)n1 (configuration not stated)
a: > 100

q: Look up and report measured Selectivity ratio for this entry: Cc1ccn(-c2ccc(C(=O)N3CCCCc4ccccc43)cc2)n1
a: 0.12

---

species: Homo sapiens; assay: Selectivity for human OTR receptor over human V2 receptor
property.name: Selectivity ratio
The response must contain the number and no unit.

q: Look up and report measured Selectivity ratio for this entry: Cc1ccn(-c2ccc(C(=O)N3Cc4cccn4Cc4ccccc43)c(Cl)c2)n1
a: 4

q: Look up and report measured Selectivity ratio for this entry: Cc1ccn(-c2ccc(C(=O)N3CCCCc4ccccc43)cc2)n1
a: 0.3

q: Look up and report measured Selectivity ratio for this entry: Cc1ccn(-c2ccc(C(=O)N3CCCC(O)c4ccccc43)cc2)n1 (stereo unspecified)
a: 0.6

q: Look up and report measured Selectivity ratio for this entry: Cc1ccn(-c2ccc(C(=O)N3CCCC(O)c4ccccc43)c(Cl)c2)n1 (stereo unspecified)
a: 8

--- query ---
q: Look up and report measured Selectivity ratio for this entry: Cc1ccn(-c2ccc(C(=O)N3Cc4cnn(C)c4Nc4ccccc43)c(Cl)c2)n1
a: 0.59

---

molecular target: Oxytocin receptor (Homo sapiens); experiment: Displacement of DY647 from SNAP-tagged OTR receptor (unknown origin) expressed in HEK293 cells by TR-FRET assay; assay type: cell-based
# pKi per entry
The meaning of pKi here: minus log10 of the concentration in molar units.

q: Look up and report measured pKi for this entry: Cc1cc(C(=O)N2Cc3cnn(C)c3Nc3ccccc32)ccc1CNC(=O)NCC(=O)N(C)C
a: 6.38

q: Look up and report measured pKi for this entry: Cc1cc(C(=O)N2Cc3cnn(C)c3Nc3ccccc32)ccc1CNC(=O)N1CCC[C@H]1C(=S)N1CCCN(C)CC1
a: 6.85

q: Look up and report measured pKi for this entry: COC(=O)CNC(=O)NCc1ccc(C(=O)N2Cc3cnn(C)c3Nc3ccccc32)cc1C
a: 6.41

q: Look up and report measured pKi for this entry: Cc1cc(C(=O)N2Cc3cnn(C)c3Nc3ccccc32)ccc1CNC(=O)NCC(=S)N(C)C
a: 7.21

--- query ---
q: Look up and report measured pKi for this entry: Cc1cc(C(=O)N2Cc3cnn(C)c3Nc3ccccc32)ccc1CNC(=O)N1CCC[C@H]1C(=S)N(C)C
a: 6.65

---

biological target: UniProt P37288; experiment: Displacement of [3H]-AVP from human V1A receptor expressed in CHO cell membranes by radioligand binding assay
Classes based on Ki: small value: < 60 nM; mid value: ≥ 60 nM and < 600 nM; large value: ≥ 600 nM

Reference set, count: 2
q: Sort into band: Cc1ccn(-c2ccc(C(=O)N3CCCC(N(C)C)c4ccccc43)cc2)n1 (stereo not given)
a: large value

q: Sort into band: O=C(c1ccc(-c2ccccc2)cc1)N1CCCCc2ccccc21
a: small value

---
q: Sort into band: O=C(c1ccc(Br)cc1)N1CCCCc2ccccc21
a: mid value

q: Sort into band: Cc1ccn(-c2ccc(C(=O)N3CCCC(=O)c4ccccc43)cc2)n1
a: small value

q: Sort into band: O=C(c1ccc(Cl)cc1)N1CCCCc2ccccc21
a: mid value

q: Sort into band: O=C(c1ccc(I)cc1)N1CCCCc2ccccc21
a: small value

---

molecular target: Vasopressin V2 receptor (Homo sapiens, UniProt P30518); assay: Displacement of [3H]-AVP from human V2 receptor expressed in CHO cell membranes by radioligand binding assay
Sequence (P30518 whole entry): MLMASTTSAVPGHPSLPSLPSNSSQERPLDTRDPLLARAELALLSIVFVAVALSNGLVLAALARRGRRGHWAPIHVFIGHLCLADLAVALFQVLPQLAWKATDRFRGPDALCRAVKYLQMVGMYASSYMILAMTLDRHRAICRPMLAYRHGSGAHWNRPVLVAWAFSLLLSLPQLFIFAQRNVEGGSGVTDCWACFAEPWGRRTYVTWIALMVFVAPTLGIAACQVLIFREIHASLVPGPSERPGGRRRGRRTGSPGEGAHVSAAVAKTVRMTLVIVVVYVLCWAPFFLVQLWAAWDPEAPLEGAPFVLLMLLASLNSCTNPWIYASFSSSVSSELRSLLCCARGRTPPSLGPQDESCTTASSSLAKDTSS
property.name: pKi
The meaning of pKi here: minus log10 of the concentration in molar units.

Check out these entries, answers already filled in.
q: Look up and report measured pKi for this entry: Cc1ccn(-c2ccc(C(=O)N3CCCC(O)c4ccccc43)c(Cl)c2)n1 (configuration not stated)
a: 7.00

q: Look up and report measured pKi for this entry: CN(C)c1ccc(C(=O)N2CCCCc3ccccc32)cc1
a: 6.33

q: Look up and report measured pKi for this entry: O=C(c1ccc(Cl)cc1)N1CCCCc2ccccc21
a: 6.29

q: Look up and report measured pKi for this entry: O=C(c1ccc(I)cc1)N1CCCCc2ccccc21
a: 6.80

--- query ---
q: Look up and report measured pKi for this entry: Cc1ccn(-c2ccc(C(=O)N3CCCC(N(C)C)c4ccccc43)c(Cl)c2)n1 (configuration not stated)
a: 6.48

---

# Ki per entry
target: Vasopressin V1a receptor (Homo sapiens, UniProt P37288); assay: Displacement of DY647 from SNAP-tagged V1A receptor (unknown origin) expressed in HEK293 cells by TR-FRET assay; format: cell-based
Sequence (P37288 whole entry): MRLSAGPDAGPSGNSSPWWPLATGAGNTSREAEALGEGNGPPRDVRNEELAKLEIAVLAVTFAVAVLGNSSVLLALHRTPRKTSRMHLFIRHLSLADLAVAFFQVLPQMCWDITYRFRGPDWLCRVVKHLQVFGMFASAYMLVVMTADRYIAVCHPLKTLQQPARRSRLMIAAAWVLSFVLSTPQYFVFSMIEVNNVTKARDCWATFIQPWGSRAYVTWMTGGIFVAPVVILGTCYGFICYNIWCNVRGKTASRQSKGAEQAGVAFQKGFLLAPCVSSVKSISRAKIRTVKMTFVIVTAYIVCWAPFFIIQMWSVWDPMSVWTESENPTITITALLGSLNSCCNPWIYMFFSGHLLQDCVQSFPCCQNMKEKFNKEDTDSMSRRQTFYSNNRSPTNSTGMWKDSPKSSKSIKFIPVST

Check out these entries, answers already filled in.
q: Report the value of Ki obtained on Vasopressin V1a receptor (Homo sapiens, UniProt P37288) for COC(=O)CNC(=O)NCc1ccc(C(=O)N2Cc3cnn(C)c3Nc3ccccc32)cc1C .
a: > 1 µM

q: Report the value of Ki obtained on Vasopressin V1a receptor (Homo sapiens, UniProt P37288) for Cc1cc(C(=O)N2Cc3cnn(C)c3Nc3ccccc32)ccc1CNC(=O)NCC(=O)N(C)C .
a: > 1 µM

--- query ---
q: Report the value of Ki obtained on Vasopressin V1a receptor (Homo sapiens, UniProt P37288) for Cc1cc(C(=O)N2Cc3cnn(C)c3Nc3ccccc32)ccc1CNC(=O)N1CCC[C@H]1C(=O)N(C)C .
a: > 1 µM

---

Molecular target: Oxytocin receptor (Homo sapiens, UniProt P30559)
Sequence (P30559 whole entry): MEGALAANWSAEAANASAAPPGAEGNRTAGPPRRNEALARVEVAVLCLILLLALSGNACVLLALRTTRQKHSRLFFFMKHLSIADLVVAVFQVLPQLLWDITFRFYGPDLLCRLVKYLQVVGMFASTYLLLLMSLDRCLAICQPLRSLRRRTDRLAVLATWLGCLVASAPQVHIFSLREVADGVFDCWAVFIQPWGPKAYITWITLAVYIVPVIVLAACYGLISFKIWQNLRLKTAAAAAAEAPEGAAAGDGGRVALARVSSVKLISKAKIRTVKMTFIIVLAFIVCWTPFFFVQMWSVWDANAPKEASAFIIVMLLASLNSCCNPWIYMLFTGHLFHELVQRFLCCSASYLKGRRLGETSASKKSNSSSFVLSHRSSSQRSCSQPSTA
Assay: Displacement of [3H]-AVP from human OXR receptor expressed in CHO cell membranes by radioligand binding assay
pKi: −log10 of the molar value.
property.name: pKi

Check out these entries, answers already filled in.
q: Look up and report measured pKi for this entry: O=C(c1ccc(Br)cc1)N1CCCCc2ccccc21
a: > 8.00

q: Look up and report measured pKi for this entry: O=C(c1ccc(Cl)cc1)N1CCCCc2ccccc21
a: > 8.00

q: Look up and report measured pKi for this entry: CN(C)c1ccc(C(=O)N2CCCCc3ccccc32)cc1
a: < 6.00

q: Look up and report measured pKi for this entry: Cc1ccn(-c2ccc(C(=O)N3CCCC(=O)c4ccccc43)cc2)n1
a: > 8.00

---
q: Look up and report measured pKi for this entry: Nc1ccc(C(=O)N2CCCCc3ccccc32)cc1
a: > 8.00

q: Look up and report measured pKi for this entry: C[N+](C)(C)c1ccc(C(=O)N2CCCCc3ccccc32)cc1
a: > 8.00

q: Look up and report measured pKi for this entry: Cc1ccn(-c2ccc(C(=O)N3CCCC(=O)c4ccccc43)c(Cl)c2)n1
a: > 8.00

q: Look up and report measured pKi for this entry: CC(=O)Nc1ccc(C(=O)N2CCCCc3ccccc32)cc1
a: < 6.00

q: Look up and report measured pKi for this entry: Cc1ccn(-c2ccc(C(=O)N3CCCC(N(C)C)c4ccccc43)c(Cl)c2)n1 (stereo not given)
a: < 6.00

q: Look up and report measured pKi for this entry: Cc1ccn(-c2ccc(C(=O)N3CCCCCC3)c(Cl)c2)n1
a: > 8.00
